Test: MMV: MTT Cytotoxicity Assay Day 7 pi of Assay #11 (NO washout), U87-CD4-CXCR4 cells, % cell death @ 5mM compound
Format: toxicity, cell-based
Conditions: human, u87-cd4-cxcr4, 5000 µM
Please respond with yes (1) when measured % Cell Death is strictly beneath 30, and with no (0) in all other cases.

compound: CCOC(=O)c1cnc2ccc(Cl)cc2c1NCCCN(C)C
discrete-label: yes (1)
--
compound: Cc1ccc(S(=O)(=O)c2c(COC(=O)c3cccc(C)c3)c(-c3ccccc3)nn2C)cc1
discrete-label: no (0)
--
compound: COc1cc(CNCCc2ccc(Cl)cc2)cc(OC)c1O
discrete-label: no (0)
--
compound: COc1ccc(C(=O)C(CCC(CNC(C)(C)C)C(=O)c2ccc(OC)cc2)CNC(C)(C)C)cc1 (centres undefined)
discrete-label: no (0)
--
compound: CCCCOC(=O)c1ccc(Nc2cc(C)nc3ccc(OC)cc23)cc1
discrete-label: yes (1)
--
compound: O=c1nc(C=Cc2ccc(Br)cc2)oc2ccccc12
discrete-label: yes (1)
--
compound: CN(C)c1ccc(C=Cc2nc(=O)c3ccccc3o2)cc1
discrete-label: yes (1)
--
compound: CCc1ccc(CNCC(O)c2ccccc2)cc1.Cl (centres undefined)
discrete-label: no (0)
--
compound: CCOc1ccc(-n2cc(-c3ccccc3)c3c(SCc4cc(C)ccc4C)ncnc32)cc1
discrete-label: yes (1)
--
compound: CCCc1c(C)nc2ccc(Br)cc2c1O
discrete-label: yes (1)
--
compound: CCOc1c(Cl)cc(CNC(C)C(O)c2ccccc2)cc1OC (centres undefined)
discrete-label: yes (1)
--
compound: CCOc1ccccc1NC(=O)CN1CCN(C(=O)c2ccco2)CC1
discrete-label: no (0)
--
compound: CC(C)OCc1cc(CN2CCN(c3cccc(Cl)c3)CC2)c(O)c2ncccc12
discrete-label: no (0)
--
compound: FC(F)(F)c1cccc(Nc2nc(-c3ccccc3)nc3ncccc23)c1
discrete-label: yes (1)

* * *

Test: MMV: MTT Cytotoxicity Assay Day 7 pi of Assay #10 (NO washout), U87-CD4-CCR5 cells, % cell death @ 5mM compound
Type: toxicity, cell-based
Details: human, u87-cd4-ccr5, 5000 µM

compound: O=C1c2ccc3c4c(ccc(c24)C(=O)N1CCCCO)C(=O)N(CCCCO)C3=O
% Cell Death: 61

compound: COc1cccc(C2(C)Nc3ccccc3-c3nc4ccccc4n32)c1 (stereo not given)
% Cell Death: 35

compound: CCCN(CCC)CC(O)COc1ccccc1C(=O)Nc1ccccc1 (stereo not given)
% Cell Death: 34

compound: N#Cc1nc(Cc2cccc3ccccc23)oc1N1CCN(C(c2ccccc2)c2ccccc2)CC1
% Cell Death: 109

compound: CCOc1cc(CNC(C)C(O)c2ccccc2)cc(Cl)c1OCC (stereo not given)
% Cell Death: 67

compound: O=C(Nc1ccc(CN2CCOCC2)cc1)c1ccc(-c2ccc(Br)cc2)o1
% Cell Death: 96

compound: CC(=O)NCCc1nc2ccccc2n1Cc1ccc(C(C)C)cc1
% Cell Death: 13

compound: CCOC(=O)C1CCN(C(=O)CN2C(=O)c3ccccc3C2c2c[nH]c3ccccc23)CC1 (stereo not given)
% Cell Death: 109

compound: CC(C)(C)CC(C)(C)NCC(O)COc1ccc(Cl)cc1Cl (stereo not given)
% Cell Death: -1

compound: CCOc1ccc(N2C(N)=NC(N)=NC2(C)C)cc1.Cl
% Cell Death: 135

* * *

Assay: MMV: MTT Cytotoxicity Assay Day 3 pi, U87-CD4-CCR5 cells, % cell death @ 5mM compound
Type: toxicity, cell-based
Conditions: human, u87-cd4-ccr5, 5000 µM
This listing pairs compounds with measured % Cell Death.

compound: COc1ccc2nc(C)cc(Nc3cccc(O)c3)c2c1.Cl
% Cell Death: 16
//
compound: CCN(CC)c1ccc(NC(=O)c2cccs2)cc1
% Cell Death: 94
//
compound: Cc1ccc(Cl)cc1N1CCN(CCCNC(=O)C2CCN(c3nc4ccccc4[nH]3)CC2)CC1
% Cell Death: 86
//
compound: O=C(NNc1cc(N2CCCC2)nc(N2CCCC2)n1)c1ccccc1
% Cell Death: 61
//
compound: Nc1ccn([C@@H]2O[C@H](CO)[C@@H](O)[C@H]2O)c(=O)n1
% Cell Death: -30
//
compound: O=C(NC1CCN(Cc2ccccc2)CC1)c1cc(-c2cccnc2)nc2ccc(Cl)cc12
% Cell Death: -9
//
compound: COc1ccc(C(=O)Nc2ccc3nc(N4CCCCC4)cc(C)c3c2)cc1OC
% Cell Death: 108
//
compound: O=C(Nc1ccc(Cl)c(Cl)c1)Nc1ccc(Cl)c(Cl)c1
% Cell Death: 82
//
compound: CCCCCCOC(=O)C1=C(C)NC(=O)NC1c1ccccc1F (stereo unspecified)
% Cell Death: 16
//
compound: Cc1[nH]c(-c2ccc(F)cc2)cc1C(=O)NC1CCN(Cc2ccccc2)CC1
% Cell Death: 65
//
compound: OCCNc1nc(Nc2ccc(Cl)c(Cl)c2)nc2ccccc12
% Cell Death: 41

* * *

Experiment: MMV: MTT Cytotoxicity Assay Day 3 pi, U87-CD4-CXCR4 cells, % cell death @ 5mM compound
Assay type: toxicity, cell-based
Conditions: human, u87-cd4-cxcr4, 5000 µM

compound: CC(C)=CCN1CCC(C(=O)Nc2ccc(-c3nc4ccccc4[nH]3)cc2)CC1
% Cell Death: 22
--
compound: O=C(Nc1cccc(C2=NCCN2)c1)Nc1cccc(C2=NCCN2)c1
% Cell Death: 63
--
compound: O=C1c2ccccc2-c2nnc(-c3ccc(Br)cc3)cc21
% Cell Death: 16
--
compound: COc1ccc(-c2nc3cc(Cc4ccc5[nH]c(-c6ccc(OC)cc6)nc5c4)ccc3[nH]2)cc1
% Cell Death: 23
--
compound: Nc1ccn([C@@H]2O[C@H](CO)[C@@H](O)[C@H]2O)c(=O)n1
% Cell Death: 28
--
compound: CCOc1cc(Cl)c(C(C)NC(=O)c2cccc(OC)c2)cc1OCC (stereo unspecified)
% Cell Death: 37
--
compound: Nc1ccc(-c2nc3cc(Cc4ccc5[nH]c(-c6ccc(N)cc6)nc5c4)ccc3[nH]2)cc1
% Cell Death: 57
--
compound: Cc1ccc2nc(C)cc(Nc3cccc(C(F)(F)F)c3)c2c1.Cl
% Cell Death: 38
--
compound: CN(C)c1ccc(-c2nc3cc(N)ccc3[nH]2)cc1
% Cell Death: 19
--
compound: Cc1cc(Nc2ccc(OCc3ccccc3)cc2)nc2cc(O)ccc12
% Cell Death: -46
--
compound: CCN1CCN(c2cc(C)c3cc(NC(=O)c4ccc(OC)c(OC)c4)ccc3n2)CC1
% Cell Death: 36

* * *

Test: MMV: MTT Cytotoxicity Assay Day 3 pi, U87-CD4-CCR5 cells, % cell death @ 5mM compound
Format: toxicity, cell-based
Settings: human, u87-cd4-ccr5, 5000 µM
This listing pairs compounds with measured % Cell Death.
observation-type: % Cell Death

compound: CN1c2ccccc2N(C)C1c1ccc2c(c1)OCO2
observation-type: % Cell Death
observed: -7

compound: CC(C)c1ccc(CNCC(O)c2ccccc2)cc1.Cl (centres undefined)
observation-type: % Cell Death
observed: -53

compound: COc1ccc(-c2cc3c(nn2)-c2ccccc2C3=O)cc1
observation-type: % Cell Death
observed: 71

compound: COc1ccc(C)c2sc(N(Cc3cccnc3)C(=O)c3ccc(C#N)cc3)nc12
observation-type: % Cell Death
observed: -7

compound: COc1ccc2nc(C)cc(Nc3ccc(Cl)cc3)c2c1
observation-type: % Cell Death
observed: 106

compound: O=C(NCc1ccco1)C1CCN(S(=O)(=O)c2ccc(Br)cc2)CC1
observation-type: % Cell Death
observed: 14

compound: CCc1ccc(CNCC(O)c2ccccc2)cc1.Cl (centres undefined)
observation-type: % Cell Death
observed: -25

compound: O=C(Nc1ccc(-c2nc3cc4ccccc4cc3[nH]2)cc1)c1cccc(Br)c1
observation-type: % Cell Death
observed: 16

compound: CC(C)(C)c1ccc(O)c(CNC2CCCCC2)c1
observation-type: % Cell Death
observed: 108

compound: O=C(Nc1ccc(-c2nc3cc(NC(=O)c4ccc(Cl)cc4)ccc3[nH]2)cc1)c1ccc(Cl)cc1
observation-type: % Cell Death
observed: -28

compound: Nc1ccc(-c2nc3cc(Oc4ccc(Oc5ccc6[nH]c(-c7ccc(N)cc7)nc6c5)cc4)ccc3[nH]2)cc1
observation-type: % Cell Death
observed: 21

compound: CSc1ccccc1C(=O)Nc1nc(-c2ccccn2)cs1
observation-type: % Cell Death
observed: 28

compound: CCN(CC)CCn1c(=N)n(CC(O)c2ccc(Cl)c(Cl)c2)c2ccccc21.Cl (centres undefined)
observation-type: % Cell Death
observed: 18

compound: Cc1ccc(CN2CCC(C(=O)Nc3ccc(-c4cc5ccccc5[nH]4)cc3)CC2)o1
observation-type: % Cell Death
observed: 33

compound: N#Cc1nc(Cc2cccc3ccccc23)oc1N1CCN(C(c2ccccc2)c2ccccc2)CC1
observation-type: % Cell Death
observed: 112

compound: CN(C)c1ccc(N2C(N)=NC(N)=NC2(C)C)cc1
observation-type: % Cell Death
observed: -12

compound: COc1ccc(CCn2c(=N)c(C(=O)NCc3cccnc3)cc3c(=O)n4cccc(C)c4nc32)cc1
observation-type: % Cell Death
observed: 1

compound: COc1ccc(-c2c(C)nn3c(N)c(C#N)cnc23)cc1OC
observation-type: % Cell Death
observed: 83

compound: COc1cc2c3cc1Oc1c(OC)c(OC)cc4c1C(Cc1ccc(O)c(c1)Oc1ccc(cc1)CC3N(C)CC2)N(C)CC4.Cl (centres undefined)
observation-type: % Cell Death
observed: -12

compound: CC(C)(C)CC(C)(C)NCC(O)COc1ccc2c(c1)CCC2.Cl (centres undefined)
observation-type: % Cell Death
observed: -4

compound: FC(F)(F)c1ccc(Nc2nnnc3ccccc23)cc1
observation-type: % Cell Death
observed: 67

compound: CN1CCN(c2ccc(Nc3c4ccccc4nc4ccccc34)cc2)CC1
observation-type: % Cell Death
observed: 11

compound: COc1ccc(CN2CCN(Cc3ccccc3)CC2)c(O)c1
observation-type: % Cell Death
observed: 16

compound: O=C(Nc1ccsc1C(=O)NC1CCCCC1)c1ccc(F)cc1
observation-type: % Cell Death
observed: -22

compound: O=C(NCc1ccco1)C1CCN(S(=O)(=O)c2ccc(Cl)cc2)CC1
observation-type: % Cell Death
observed: 22

compound: COc1cccc(C2(C)Nc3ccccc3-c3nc4ccccc4n32)c1 (centres undefined)
observation-type: % Cell Death
observed: -22

compound: O=C(NC1CCN(Cc2ccccc2)CC1)c1cc(-c2ccncc2)nc2ccc(Cl)cc12
observation-type: % Cell Death
observed: 13

compound: Fc1ccc2[nH]c3c(NCCCN4CCOCC4)ncnc3c2c1
observation-type: % Cell Death
observed: -1

compound: O=C(Nc1ccc(CN2CCOCC2)cc1)c1ccc(-c2ccc(Br)cc2)o1
observation-type: % Cell Death
observed: 20

compound: CC(C)(C)c1ccc(C2CC3=Nc4ccccc4N(C(=O)c4ccccc4Cl)C(c4ccc(F)cc4)C3=C(O)C2)cc1 (centres undefined)
observation-type: % Cell Death
observed: -12

compound: CN(C)c1ccc(C=Cc2nc(=O)c3ccccc3o2)cc1
observation-type: % Cell Death
observed: 39

compound: CCCCCCc1cc(O)c2c3c(c(=O)oc2c1)CCC(C)C3 (centres undefined)
observation-type: % Cell Death
observed: 16

compound: O=C(Nc1cccc(C(F)(F)F)c1)c1cc(Cl)ccc1O
observation-type: % Cell Death
observed: 95

compound: CCc1c(C)c(=N)c2ccccc2n1C.I
observation-type: % Cell Death
observed: 22
